- systemUnderTest: DC-SIGN CRD (Homo sapiens, UniProt Q9NNX6)
- Sequence (Q9NNX6 250-404): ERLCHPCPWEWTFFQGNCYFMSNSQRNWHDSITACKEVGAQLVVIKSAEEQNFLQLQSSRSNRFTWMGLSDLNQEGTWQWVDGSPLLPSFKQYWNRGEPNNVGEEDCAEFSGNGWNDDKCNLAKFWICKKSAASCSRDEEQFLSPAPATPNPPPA
- assayExplanation: COIN-nMS (submicron emitters) with a mixture of ten glycans (G2, G5, G10, G14-G20), 200 mM ammonium acetate with 2.5 mM calcium salt, pH 7.4.
- Type: binding
- Set-up: gene CD209; carbohydrate recognition domain, residues 250-404, MW 17 794 Da
- experimentalSetup: SD, n = 6; read-out: Kd (COIN-nMS), Table S5
Measured Kd values are reported for all entries that follow.
Give the number; µM is assumed, so skip it.

molecule	resultUnits	Kd
C[C@@H]1O[C@@H](O[C@H]2[C@H](O[C@H]3[C@H](O)[C@@H](O)C(O)O[C@@H]3CO)O[C@H](CO)[C@H](O)[C@@H]2O)[C@@H](O)[C@H](O)[C@@H]1O (some centres unmarked)	µM	660
CC(=O)N[C@H]1[C@@H](O[C@H]2[C@@H](O)[C@@H](CO)O[C@@H](O[C@H]3[C@H](O)[C@@H](NC(C)=O)C(O)O[C@@H]3CO)[C@@H]2O[C@@H]2O[C@@H](C)[C@@H](O)[C@@H](O)[C@@H]2O)O[C@H](CO)[C@H](O)[C@@H]1O (some centres unmarked)	µM	2920
OC[C@H]1O[C@H](OC[C@H]2O[C@H](OC[C@H]3OC(O)[C@@H](O)[C@@H](O[C@H]4O[C@H](CO)[C@@H](O)[C@H](O)[C@@H]4O[C@H]4O[C@H](CO)[C@@H](O)[C@H](O)[C@@H]4O)[C@@H]3O)[C@@H](O)[C@@H](O[C@H]3O[C@H](CO)[C@@H](O)[C@H](O)[C@@H]3O)[C@@H]2O)[C@@H](O)[C@@H](O)[C@@H]1O (some centres unmarked)	µM	560
CC(=O)N[C@H]1[C@H](O[C@H]2[C@@H](O)[C@@H](CO)OC(O)[C@@H]2O)O[C@H](CO)[C@@H](O[C@@H]2O[C@@H](C)[C@@H](O)[C@@H](O)[C@@H]2O)[C@@H]1O[C@@H]1O[C@H](CO)[C@H](O)[C@H](O)[C@H]1O[C@@H]1O[C@@H](C)[C@@H](O)[C@@H](O)[C@@H]1O (some centres unmarked) [G17, blood group antigen G17]	µM	550

Lookup result for OC[C@H]1O[C@H](O[C@@H]2[C@H](O)[C@@H](OC[C@H]3OC(O)[C@@H](O)[C@@H](O[C@H]4O[C@H](CO)[C@@H](O)[C@H](O)[C@@H]4O[C@H]4O[C@H](CO)[C@@H](O)[C@H](O)[C@@H]4O[C@H]4O[C@H](CO)[C@@H](O)[C@H](O)[C@@H]4O)[C@@H]3O)O[C@H](CO[C@H]3O[C@H](CO)[C@@H](O)[C@H](O)[C@@H]3O[C@H]3O[C@H](CO)[C@@H](O)[C@H](O)[C@@H]3O)[C@H]2O)[C@@H](O)[C@@H](O)[C@@H]1O (some centres unmarked) ; measured Kd: 260

---

- systemUnderTest: Sig7-Fc (Homo sapiens, UniProt Q9Y286)
- Sequence (Q9Y286 1-345): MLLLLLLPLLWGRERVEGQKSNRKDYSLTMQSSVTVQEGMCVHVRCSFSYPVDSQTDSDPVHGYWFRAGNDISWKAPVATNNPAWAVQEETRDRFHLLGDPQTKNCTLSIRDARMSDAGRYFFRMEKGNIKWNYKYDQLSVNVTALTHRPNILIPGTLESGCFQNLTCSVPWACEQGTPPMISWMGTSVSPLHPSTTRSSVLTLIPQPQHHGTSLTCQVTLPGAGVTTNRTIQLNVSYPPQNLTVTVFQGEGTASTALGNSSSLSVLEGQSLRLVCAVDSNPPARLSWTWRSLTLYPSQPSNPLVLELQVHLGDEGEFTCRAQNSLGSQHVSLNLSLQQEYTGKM
- assayExplanation: COIN-CaR-nMS with purified oligosaccharides listed beside the library glycans, 200 mM ammonium acetate, pH 6.9.
- Type: binding
- Set-up: gene SIGLEC7; residues 1-345, human IgG1 Fc fusion and C-terminal His6, from CHO cells, MW 150 kDa
- experimentalSetup: read-out: Kd, purified oligosaccharides in Tables S12, S13, S18, S19; SD
experimentalEndpoint: pKd
The quantity pKd is defined as the negative base-10 logarithm of the molar concentration.

molecule	systemUnderTest	resultValue
CC(=O)NC1C(OC2C(CO)OC(OC3C(CO)OC(O)C(O)C3O)C(O)C2OC2(C(=O)O)CC(O)C(NC(C)=O)C(C(O)C(CO)OC3(C(=O)O)CC(O)C(NC(C)=O)C(C(O)C(CO)OC4(C(=O)O)CC(O)C(NC(C)=O)C(C(O)C(O)CO)O4)O3)O2)OC(CO)C(O)C1O (centres unmarked)	Sig7-Fc (Homo sapiens, UniProt Q9Y286)	3.63

// below: pKd requested for another molecule
Item: CC(=O)NC1C(OC2C(CO)OC(OC3C(CO)OC(O)C(O)C3O)C(O)C2OC2(C(=O)O)CC(O)C(NC(C)=O)C(C(O)C(O)CO)O2)OC(CO)C(O)C1O (centres unmarked) | pKd: 3.34

---

- systemUnderTest: Sig7-Fc (Homo sapiens)
- assayExplanation: COIN-CaR-nMS with purified oligosaccharides listed beside the library glycans, 200 mM ammonium acetate, pH 6.9.
- Type: binding
- Set-up: gene SIGLEC7; residues 1-345, human IgG1 Fc fusion and C-terminal His6, from CHO cells, MW 150 kDa
- experimentalSetup: SD; read-out: Kd, purified oligosaccharides in Tables S12, S13, S18, S19
Below, each entry is listed alongside its reported pKd.
Lab note: report pKd as minus log10 of the concentration in molar units, number only.

Examples with answers:
compound	pKd
CC(=O)N[C@H]1[C@H]([C@H](O)[C@H](O)CO)O[C@@](O[C@H]2[C@@H](O)[C@@H](CO)O[C@@H](O[C@H]3[C@H](O)[C@@H](O)C(O)O[C@@H]3CO)[C@@H]2O)(C(=O)O)C[C@@H]1O (stereo partly drawn) [G22]	3.56
CC(=O)N[C@H]1[C@H](O[C@@H]2[C@H](O[C@]3(C(=O)O)C[C@H](O)[C@@H](NC(C)=O)[C@H]([C@H](O)[C@@H](CO)O[C@]4(C(=O)O)C[C@H](O)[C@@H](NC(C)=O)[C@H]([C@H](O)[C@H](O)CO)O4)O3)[C@@H](O)[C@H](O[C@H]3[C@H](O)[C@@H](O)C(O)O[C@@H]3CO)O[C@@H]2CO)O[C@H](CO)[C@H](O)[C@@H]1O[C@@H]1O[C@H](CO)[C@H](O)[C@H](O)[C@H]1O (stereo partly drawn) [GD1b]	2.91
CC(=O)N[C@H]1[C@H](O[C@@H]2[C@H](O[C@]3(C(=O)O)C[C@H](O)[C@@H](NC(C)=O)[C@H]([C@H](O)[C@@H](CO)O[C@]4(C(=O)O)C[C@H](O)[C@@H](NC(C)=O)[C@H]([C@H](O)[C@H](O)CO)O4)O3)[C@@H](O)[C@H](O[C@H]3[C@H](O)[C@@H](O)C(O)O[C@@H]3CO)O[C@@H]2CO)O[C@H](CO)[C@H](O)[C@@H]1O (stereo partly drawn) [G29]	3.69
CC(=O)N[C@H]1[C@H]([C@H](O)[C@H](O)CO)O[C@@](O[C@H]2[C@@H](O)[C@@H](CO)O[C@@H](O[C@H]3[C@H](O)[C@@H](NC(C)=O)C(O)O[C@@H]3CO)[C@@H]2O)(C(=O)O)C[C@@H]1O (stereo partly drawn) [G25]	3.57
CC(=O)N[C@H]1[C@H](O[C@@H]2[C@H](O[C@]3(C(=O)O)C[C@H](O)[C@@H](NC(C)=O)[C@H]([C@H](O)[C@H](O)CO)O3)[C@@H](O)[C@H](O[C@H]3[C@H](O)[C@@H](O)C(O)O[C@@H]3CO)O[C@@H]2CO)O[C@H](CO)[C@H](O)[C@@H]1O[C@@H]1O[C@H](CO)[C@H](O)[C@H](O)[C@H]1O (stereo partly drawn) [GM1]	3.36

Now, please, on to the next compound.
Sample CC(=O)N[C@H]1[C@H]([C@H](O)[C@H](O)CO)O[C@@](O[C@H](CO)[C@@H](O)[C@@H]2O[C@@](O[C@H]3[C@@H](O)[C@@H](CO)O[C@@H](O[C@H]4[C@H](O)[C@@H](O)C(O)O[C@@H]4CO)[C@@H]3O)(C(=O)O)C[C@H](O)[C@H]2NC(C)=O)(C(=O)O)C[C@@H]1O (stereo partly drawn) [GD3] ; pKd observed: 4.01

---

Here, each record is paired with measured pKd data.
- systemUnderTest: GAL-7 (Homo sapiens, UniProt P47929)
- Construct: gene LGALS7; homodimer (monomer MW 14.94 kDa)
- Sequence (P47929 whole entry): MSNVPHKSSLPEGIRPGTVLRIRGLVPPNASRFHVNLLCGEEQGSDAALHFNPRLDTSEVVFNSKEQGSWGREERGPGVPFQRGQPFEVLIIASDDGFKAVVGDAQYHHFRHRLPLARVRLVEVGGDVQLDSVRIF
- assayExplanation: Direct native ESI-MS of the GAL-7 homodimer with a mixture of ten glycans (G2, G5-G13), 200 mM ammonium acetate, pH 6.9.
- Type: binding
- experimentalSetup: SD, n = 8; read-out: Kd (nMS), Table S4
Answer as the number alone; pKd is minus log10 of concentration in mol/L.

Data point: CC(=O)N[C@H]1[C@H](O[C@H]2[C@@H](O)[C@@H](CO)O[C@@H](O[C@H]3[C@H](O)[C@@H](O)C(O)O[C@@H]3CO)[C@@H]2O)O[C@H](CO)[C@@H](O[C@@H]2O[C@H](CO)[C@H](O)[C@H](O)[C@H]2O)[C@@H]1O (stereo partly drawn) [G9] ; pKd = 3.46

Field pKd (entry CC(=O)N[C@H]1[C@H](O[C@H]2[C@@H](O)[C@@H](CO)O[C@@H](O[C@H]3[C@H](O)[C@@H](NC(C)=O)[C@H](O[C@H]4[C@@H](O)[C@@H](CO)O[C@@H](O[C@H]5[C@H](O)[C@@H](NC(C)=O)[C@H](O[C@H]6[C@@H](O)[C@@H](CO)O[C@@H](O[C@H]7[C@H](O)[C@@H](O)C(O)O[C@@H]7CO)[C@@H]6O)O[C@@H]5CO)[C@@H]4O)O[C@@H]3CO)[C@@H]2O)O[C@H](CO)[C@@H](O[C@@H]2O[C@H](CO)[C@H](O)[C@H](O)[C@H]2O)[C@@H]1O (stereo partly drawn) [G8] ) reads 3.75

The compound listed as CC(=O)N[C@H]1[C@@H](O[C@H]2[C@@H](O)[C@@H](CO)O[C@@H](O[C@H]3[C@H](O)[C@@H](CO)O[C@@H](O[C@H]4[C@@H](O)[C@@H](CO)O[C@@H](O[C@H]5[C@H](O)[C@@H](O)C(O)O[C@@H]5CO)[C@@H]4O)[C@@H]3NC(C)=O)[C@@H]2O[C@@H]2O[C@@H](C)[C@@H](O)[C@@H](O)[C@@H]2O)O[C@H](CO)[C@H](O)[C@@H]1O (stereo partly drawn) [G13] has a reported pKd of 3.58
